A set of compounds tested on TYK2 (Homo sapiens (Human)), with measured pIC50:
pIC50: −log10 of the molar value.

| COMPOUND | pIC50 |
| --- | --- |
| CCOCCOC(=O)Cn1cc(Nc2ncc3ccn(CC(CC)C(C)C)c3n2)cn1 (stereo not drawn) | > 7.00 |
| CC(C)C(Cn1ccc2cnc(Nc3cnn(CC(=O)O)c3)nc21)C(C)C | > 7.00 |
| CCOC(=O)c1ccc(Nc2ncc3ccn(CC(CC)CC)c3n2)cc1 | 6.00 to 7.00 |
| CCC[C@H](Cn1ccc2cnc(Nc3cnn(CC(=O)OC(C)C)c3)nc21)C(C)C | > 7.00 |
| O=C(O)CCn1cc(Nc2ncc3ccn(Cc4ccsc4)c3n2)cn1 | > 7.00 |
| CCC(CC)Cn1ccc2cnc(Nc3cnn(CC(=O)OC(C)C(C)O)c3)nc21 (stereo not drawn) | > 7.00 |
| CCOC(=O)Cn1ccc(Nc2ncc3ccn(CC(CC)CC)c3n2)n1 | 6.00 to 7.00 |
| CC(C)OC(=O)Cn1cc(Nc2ncc3ccn(C[C@@H](CCO)C(C)C)c3n2)cn1 | > 7.00 |
| CCC(CC)Cn1ccc2cnc(Nc3cnn(CC(=O)OCCN(C)C)c3)nc21 | > 7.00 |

###

A set of molecules tested on JAK1 (Homo sapiens (Human)), with measured pIC50:
pIC50: −log10 of the molar value.

| MOLECULE | TARGET_UNDER_TEST | pIC50 |
| --- | --- | --- |
| CCOC(=O)C(C)n1cc(Nc2ncc3ccn(C[C@H]4CC[C@H](O)CC4)c3n2)cn1 (stereo partly shown) | JAK1 (Homo sapiens (Human)) | > 7.00 |
| CC(C)C(Cn1ccc2cnc(Nc3cnn(CC(=O)O)c3)nc21)C(C)C | JAK1 (Homo sapiens (Human)) | > 7.00 |
| CN1CC[C@@H](OC(=O)Cn2cc(Nc3ncc4ccn(C[C@H]5CC[C@H](O)CC5)c4n3)cn2)C1 | JAK1 (Homo sapiens (Human)) | > 7.00 |
| CCC(Cn1ccc2cnc(Nc3cnn(CCC(=O)O)c3)nc21)C(C)C (stereo not shown) | JAK1 (Homo sapiens (Human)) | > 7.00 |

###

pIC50: −log10 of the molar value.
A set of molecules tested on UniProtKB P29597, with measured pIC50:
OBSERVATION_TYPE: pIC50

| MOLECULE | OBSERVATION_TYPE | OBSERVED_RESULT |
| --- | --- | --- |
| CCOC(=O)Cn1cc(Nc2ncc3ccn(CC4CCC(C)CC4)c3n2)cn1 (stereo not drawn) | pIC50 | > 7.00 |
| CCOC(=O)Cn1cc(Nc2ncc3ccn(CC(CC)CC#N)c3n2)cn1 (stereo not drawn) | pIC50 | > 7.00 |
| CC#CCn1ccc2cnc(Nc3cnn(CC(=O)OCC)c3)nc21 | pIC50 | 6.00 to 7.00 |
| CC(C)OC(=O)Cn1cc(Nc2ncc3ccn(C[C@@H](CCCl)C(C)C)c3n2)cn1 | pIC50 | > 7.00 |
| CCOC(=O)Cn1cc(Nc2ncc3ccn(CCC#N)c3n2)cn1 | pIC50 | 6.00 to 7.00 |
| CCC(C)OC(=O)Cn1cc(Nc2ncc3ccn(CC(CC)C(C)C)c3n2)cn1 (stereo not drawn) | pIC50 | > 7.00 |
| O=C(O)Cn1cc(Nc2ncc3ccn(Cc4ccsc4)c3n2)cn1 | pIC50 | > 7.00 |
| CCOC(=O)Cn1cc(Nc2ncc3ccn(CC4(C)CCCC4)c3n2)cn1 | pIC50 | > 7.00 |
| CC[C@H](Cn1ccc2cnc(Nc3cnn(CC(=O)OCC4COC4)c3)nc21)C(C)C | pIC50 | > 7.00 |

###

pIC50: −log10 of the molar value.
A set of compounds tested on JAK3 (Homo sapiens (Human)), with measured pIC50:
OBSERVATION_TYPE: pIC50

| COMPOUND | OBSERVED_RESULT |
| --- | --- |
| CCC(Cn1ccc2cnc(Nc3cnn(CC(=O)OCCC#N)c3)nc21)C(C)C (stereo not drawn) | > 7.00 |
| CCOC(=O)Cn1ccc(Nc2ncc3ccn(CC(CC)CC)c3n2)n1 | 6.00 to 7.00 |
| CCOC(=O)C(C)n1cc(Nc2ncc3ccn(C[C@@H](CC)C(C)C)c3n2)cn1 (stereo partly drawn) | > 7.00 |
| CCOC(=O)Cn1cc(Nc2ncc3ccn(CC4CCCC(C)C4)c3n2)cn1 (stereo not drawn) | > 7.00 |
| CC(C)OC(=O)Cn1cc(Nc2ncc3ccn(C[C@@H](CCF)C(C)C)c3n2)cn1 | > 7.00 |
| CCOC(=O)Cn1cc(Nc2ncc3ccn(CC(CC)CC#N)c3n2)cn1 (stereo not drawn) | > 7.00 |
| CC(C)OC(=O)Cn1cc(Nc2ncc3ccn(CC(C(C)C)C(C)C)c3n2)cn1 | > 7.00 |
| CCOC(=O)Cn1cc(Nc2ncc3ccn(Cc4csc(C)n4)c3n2)cn1 | > 7.00 |
| CCOC(=O)Cn1cc(Nc2ncc3ccn(CC4CCCCCC4)c3n2)cn1 | > 7.00 |

Taken from patent US11136329B2.
